Method description: chemical genetic growth profiling, strain panel (AID 1159580);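 also: tested at 20 µM; growth read once vehicle control cultures reached saturation at 30 °C; 1 = growth at the plate median or of vehicle wells; lower values mean less growth of the strain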
Measurement setup: S. cerevisiae deletion strains, growth OD, locus YOR083W, strain WHI5
About 2,000 (36%) of roughly 5,500 compounds were called active. Roughly 18% stayed inconclusive and do not appear here. Rule as the data show it: active = normalized growth mostly below about 0.91 (no sharp cut-off); inconclusive = no clear call, values can overlap the other calls; inactive = mostly above about 0.92. This is one part of the list.
Thanks in advance; please answer with one of these: yes (active), no (inactive)

{"Compound": "Cc1cc(O)c(C=O)c(O)c1C(=O)O", "Class": "no"}

Field: outcome | Entry: CCC(=O)O[C@H]1[C@H](O[C@@H]2[C@@H](C)[C@H](O[C@H]3C[C@@](C)(OC)[C@@H](O)[C@H](C)O3)[C@@H](C)C(=O)O[C@H](CC)[C@@](C)(O)[C@H](O)[C@@H](C)C(=O)[C@H](C)C[C@@]2(C)O)O[C@H](C)C[C@@H]1N(C)C
yes

Field: outcome | Entry: CC1(C)OC(=O)NC1=O
no

###

Measured normalized growth accompanies every entry in the list below.
Method description: chemical genetic growth profiling, strain panel (AID 1159580);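 also: tested at 20 µM; growth read once vehicle control cultures reached saturation at 30 °C; 1 = growth at the plate median or of vehicle wells; lower values mean less growth of the strain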
Measurement setup: S. cerevisiae deletion strains, growth OD, locus YCL011C, strain gbp2, active compounds read low
Out of some 5,500 compounds screened, about 2,000 (36%) were called active. About 18% were inconclusive and are not listed. Some of the results follow.
Please give only the number in your answer, with no unit.

{"Molecule": "COc1ccc(OC)c(C(O)C(C)N)c1 (stereo not given)", "normalized growth": 1.01}
{"Molecule": "COc1cc2c(cc1OC)C(=O)OC2", "normalized growth": 0.99}
{"Molecule": "CC(C(=O)O)c1cccc(C(=O)c2ccccc2)c1 (stereo not given)", "normalized growth": 0.991}
{"Molecule": "CCOC(=O)CCC(=O)O[C@H]1[C@H](O[C@@H]2[C@@H](C)[C@H](O[C@H]3C[C@@](C)(OC)[C@@H](O)[C@H](C)O3)[C@@H](C)C(=O)O[C@H](CC)[C@@](C)(O)[C@H](O)[C@@H](C)C(=O)[C@H](C)C[C@@]2(C)O)O[C@H](C)C[C@@H]1N(C)C", "normalized growth": 1.01}
{"Molecule": "COc1cc2c(cc1OC)Cc1cc(OC)c(OC)cc1Cc1cc(OC)c(OC)cc1C2", "normalized growth": 1.04}

Return reported normalized growth. Input molecule: CC(=O)NC1SCCC1=O (stereo not given)
0.974

Return reported normalized growth. Input molecule: CCOC(=O)C(Cc1ccc(O)cc1)NC(C)=O (stereo not given)
1

Return reported normalized growth. Input molecule: CC(C)(O)[C@@H]1[C@H]2OC(=O)[C@@H]1[C@]1(O)C[C@H]3O[C@]34C(=O)O[C@H]2[C@]14C
1.01

###

Measured normalized growth accompanies every entry in the list below.
Method description: chemical genetic growth profiling, strain panel (AID 1159580);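 also: tested at 20 µM; growth read once vehicle control cultures reached saturation at 30 °C; 1 = growth at the plate median or of vehicle wells; lower values mean less growth of the strain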
Measurement setup: S. cerevisiae deletion strains, growth OD, locus YDL005C, strain med2, active compounds read low
Among all 5,500 compounds or so, about 2,000 (36%) were called active. Not shown: some 18% with an inconclusive outcome. This is one part of the list.
Please give only the number in your answer, with no unit.

Examples with their reported normalized growth follow.
{"Molecule": "CCN(CC)CCNC(=O)c1cc(Br)c(N)cc1OC", "Value kind": "normalized growth", "Value": 0.989}
{"Molecule": "CC(=O)OCC(=O)[C@@]1(O)CCC2C3CCC4=CC(=O)CC[C@]4(C)C3C(=O)C[C@@]21C (stereo partly drawn)", "Value kind": "normalized growth", "Value": 0.973}
{"Molecule": "CCOC(=O)C(=O)C1(C(=O)OCC)Oc2cc(OC)cc(OC)c2C(=O)C1c1ccccc1 (stereo not drawn)", "Value kind": "normalized growth", "Value": 0.961}

Return reported normalized growth. Input molecule: COc1cc2c(cc1OC)C(=O)OC2
0.988
